# Target Or Test System: CDK1/Cyclin B1 (Homo sapiens, UniProt P06493)
# Construct: GST
# Sequence (P06493 whole entry): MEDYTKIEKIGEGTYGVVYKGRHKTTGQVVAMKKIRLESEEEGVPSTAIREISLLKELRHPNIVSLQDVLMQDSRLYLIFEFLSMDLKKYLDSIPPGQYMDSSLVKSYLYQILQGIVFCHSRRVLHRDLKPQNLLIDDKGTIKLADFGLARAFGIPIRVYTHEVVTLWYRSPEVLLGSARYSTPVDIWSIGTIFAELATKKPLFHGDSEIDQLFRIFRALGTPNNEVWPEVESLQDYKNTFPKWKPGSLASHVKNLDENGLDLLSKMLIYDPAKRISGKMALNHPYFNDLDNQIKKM
# Sequence (P14635 whole entry partner): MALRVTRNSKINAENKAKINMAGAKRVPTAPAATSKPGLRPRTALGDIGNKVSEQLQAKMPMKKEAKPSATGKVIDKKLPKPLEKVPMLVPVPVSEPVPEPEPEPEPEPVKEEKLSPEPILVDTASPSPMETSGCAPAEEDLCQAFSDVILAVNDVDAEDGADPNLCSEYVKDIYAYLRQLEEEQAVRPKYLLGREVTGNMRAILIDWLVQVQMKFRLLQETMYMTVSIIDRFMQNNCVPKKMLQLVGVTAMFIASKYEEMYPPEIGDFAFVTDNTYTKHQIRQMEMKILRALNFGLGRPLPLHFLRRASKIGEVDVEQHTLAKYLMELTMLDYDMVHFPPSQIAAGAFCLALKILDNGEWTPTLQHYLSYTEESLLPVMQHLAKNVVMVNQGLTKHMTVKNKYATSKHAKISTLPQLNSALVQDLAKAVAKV
# Method Notes: CDK1/Cyclin B1 enzymatic phosphorylation assay (Caliper mobility shift)
# Assay Context: read-out: Enzyme CDK1/cyclin B1 IC50

Compound	Value Units	IC50
Cc1cc(Nc2cnc3cnn(C[C@H]4CCCOC4)c3n2)n[nH]1 [Example 5]	nM	5230
Cc1cc(Nc2cnc3cnn([C@@H](C)c4cccnc4Cl)c3n2)n[nH]1 [Example 26]	nM	1060
Cc1cc(Nc2cnc3c(Cl)nn([C@@H](C)c4cccnc4)c3n2)n[nH]1 [Example 27]	nM	10000
Cc1cc(Nc2cnc3cnn([C@@H](C)c4cccnc4)c3n2)n[nH]1 [Example 15]	nM	5660
Cc1cc(Nc2cnc3cnn([C@@H](C)c4cccnc4F)c3n2)n[nH]1 [Example 56]	nM	709
Cc1nn(Cc2cccnc2)c2nc(Nc3cc(C4COC4)[nH]n3)cnc12 [Example 4]	nM	5000
c1nc2cnn(CC3CCOCC3)c2nc1Nc1cc(C2COC2)[nH]n1 [Example 35]	nM	877
CC(C)c1cc(Nc2cnc3cnn(C[C@H](C)CO)c3n2)n[nH]1 [Example 61]	nM	1880
Cc1nn(CC2CCOCC2)c2nc(Nc3cc(C4COC4)[nH]n3)cnc12 [Example 8]	nM	2580
